procedure_details: p53 small molecule agonists, cell-based qHTS assay: qHTS cell viability counter screen (AID 1963581); further: nearly all actives have a fitted effect of over 45% in size
measurement_conditions: p53RE-bla HCT-116 viability, ATP luminescence, 16 h; series mostly up to 66 µM
Inconclusive results are not listed. The source made the active and inactive calls. The call rests on the fitted dose curve.
reported_endpoint: activity change, negative = cytotoxicity

Please review the entries below; each comes with its answer.
C=CCCCCCC; inactive
CC(C)(C)C1=CC(=O)C=C(C(C)(C)C)C1=O; inactive
O=c1cc(-c2ccc(O)cc2)oc2cc(O)cc(O)c12; inactive
CCCCCCCCCc1ccc(OCCOCCO)cc1; inactive
CCCCOC(=O)CCC(C)=O; inactive

Value lookup for activity change, negative = cytotoxicity; key = CC(C)(C)C(O)/C=C/c1ccc2c(c1)OCO2 (configuration not stated)
inactive

What activity change, negative = cytotoxicity value was documented for this compound, `O=C(O)CNC(=O)c1ccccc1` ?
inactive

Which activity change, negative = cytotoxicity value belongs to `CCCCOC(=O)CC#N` ?
inactive

Name the recorded activity change, negative = cytotoxicity for `Cc1coc2ccccc2c1=O` .
inactive

Look at this compound and give its reported activity change, negative = cytotoxicity. `C[C@]12C(=O)OC(=O)[C@H]1[C@H]1C=C[C@@H]2C1`
inactive

Any idea what activity change, negative = cytotoxicity was measured for `O=C1c2cccc3c2[C@H](CCC3)CN1[C@@H]1CN2CCC1CC2` ?
inactive

Report activity change, negative = cytotoxicity for `NC(=O)n1c(O)c(C(=O)c2cccs2)c2cc(Cl)ccc21` please.
inactive

// activity change, negative = cytotoxicity lookup, key: `N#Cc1ccccc1O`
inactive

If you can, please state the reported activity change, negative = cytotoxicity value of Cc1ccc(C(=O)C(C)CN2CCCCC2)cc1 (configuration not stated) .
inactive
